# Tested on: HCC1143
# ASSAY NAME: Cell cytotoxicity assay (MTT), HCC1143
# Type: cell-based
# EXPERIMENTAL SETUP: Homo sapiens, HCC1143, 72 h
ASSAY ENDPOINT: IC50 (nM)
Express it in nM; write the number only.

Task: Quick check: IC50 on HCC1143, item C[C@]12CC[C@H](O)C[C@H]1CC[C@@H]1[C@@H]2CC[C@]2(C)[C@@H](c3ccc(=O)oc3)CC[C@]12O [bufalin] ?
Result: 71.8

----------
# Tested on: SUM159PT
# ASSAY NAME: Cell cytotoxicity assay (MTT), SUM159PT
# Type: cell-based
# EXPERIMENTAL SETUP: Homo sapiens, SUM-159-PT, 72 h
ASSAY ENDPOINT: IC50
Phrase the answer as number then unit, nothing more needed.

Task: Quick one: IC50 for "C[C@]12CC[C@H](O)C[C@H]1CC[C@@H]1[C@@H]2CC[C@]2(C)[C@@H](c3ccc(=O)oc3)CC[C@]12O" ?
Result: 15.9 nM

----------
# Test system: SUM149PT
# ASSAY NAME: Cell cytotoxicity assay (MTT), SUM149PT
# Format: cell-based
# EXPERIMENTAL SETUP: 72 h
# Procedure: TNBC cells (5000 to 7000 cells per well) were seeded in 96-well plates in medium supplemented with 10% FBS. […] Cell viabilities relative to untreated control cells were plotted using Graphpad Prism.
pIC50: −log10 of the molar value.
ASSAY ENDPOINT: pIC50

Task: Quick one: pIC50 for "C[C@]12CC[C@H](O)C[C@H]1CC[C@@H]1[C@@H]2CC[C@]2(C)[C@@H](c3ccc(=O)oc3)CC[C@]12O" ?
Result: > 7.70

----------
# ASSAY NAME: Pharmacokinetic study of 3-phospho-bufalin
# EXPERIMENTAL SETUP: female, ICR, mouse, plasma, ip, 0.5 mg/kg
ASSAY ENDPOINT: AUC(0-inf) (µM·h)
Express it in µM·h; write the number only.

Task: Quick one: AUC(0-inf) for "C[C@]12CC[C@H](OP(=O)(O)O)C[C@H]1CC[C@@H]1[C@@H]2CC[C@]2(C)[C@@H](c3ccc(=O)oc3)CC[C@]12O" ?
Result: 0.046

----------
# ASSAY NAME: Pharmacokinetic study of 3-phospho-bufalin
# EXPERIMENTAL SETUP: female, ICR, mouse, plasma, ip, 0.5 mg/kg
ASSAY ENDPOINT: AUC(0-t) (µM·h)
Express it in µM·h; write the number only.

Task: Quick one: AUC(0-t) for C[C@]12CC[C@H](OP(=O)(O)O)C[C@H]1CC[C@@H]1[C@@H]2CC[C@]2(C)[C@@H](c3ccc(=O)oc3)CC[C@]12O [3-phospho-bufalin, 3-Phospho-bufalin] ?
Result: 0.031

----------
# ASSAY NAME: Pharmacokinetic study of 3-phospho-bufalin
# EXPERIMENTAL SETUP: female, ICR, mouse, plasma, ip, 0.5 mg/kg
ASSAY ENDPOINT: Tmax (min)
Express it in min; write the number only.

Task: Quick one: Tmax for "C[C@]12CC[C@H](OP(=O)(O)O)C[C@H]1CC[C@@H]1[C@@H]2CC[C@]2(C)[C@@H](c3ccc(=O)oc3)CC[C@]12O" ?
Result: 15
